Target: T1, human EpCAM on COLO-205 cells (human, UniProt P16422 24-314)
T1 construct: whole, on cells; Endogenous EpCAM of the EpCAM-positive cell line COLO-205; also called epithelial cell adhesion molecule; Colo205 (EpCAM+)
T1 sequence (looked up): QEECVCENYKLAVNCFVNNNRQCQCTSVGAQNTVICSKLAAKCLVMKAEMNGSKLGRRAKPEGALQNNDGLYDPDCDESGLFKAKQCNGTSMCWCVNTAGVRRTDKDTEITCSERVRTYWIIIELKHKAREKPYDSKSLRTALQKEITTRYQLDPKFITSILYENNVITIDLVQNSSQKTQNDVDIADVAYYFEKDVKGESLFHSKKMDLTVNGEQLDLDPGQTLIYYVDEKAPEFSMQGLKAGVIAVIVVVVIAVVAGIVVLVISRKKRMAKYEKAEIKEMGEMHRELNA
Assay: flow cytometry, periplasmic extract of soluble Centyrin on COLO-205 (EpCAM+) cells
This listing pairs binders with measured Mean BL-1 P.E. COLO-205.
The reply should be a number, written without any unit.

Challenge: Field request: Mean BL-1 P.E. COLO-205 | item: EpCAM binding FN3 domain clone 1874 (designed binder, not shown: No entry is named H9) MLPAPKNLVVSRVTEDSARLSWTAPDAAFDSFKIGYWEWRKYGEAIELNVPGSERSYDLTGLKPGTEYRVLIYGVKGGAGSHPLRALFTT
Response given: 27100

New cases:
Challenge: Field request: Mean BL-1 P.E. COLO-205 | item: EpCAM binding FN3 domain clone 639 (designed binder, not shown: No entry is named H9) MLPAPKNLVVSRVTEDSARLSWTAPDAAFDSFSISYRERSAWGEAIALVVPGSERSYDLTGLKPGIEYIVGIIGVKGGLRSNPLRADFTT
Response given: 10100

Values compiled from patent US12491255.
